assay: compounds altering in vitro BBB leakiness – cell-based, FITC-avidin fluorescence, HTS, primary screen (AID 1963498); settings: brain endothelial barrier, actives lie on both sides; further: test concentration not given here
The source made the active and inactive calls. No stated cut-off is given here; in the data, active means fold change permeability below about 0.7 or above about 1.3; inactive means in between.
Your reply should match one of these outcome classes. active, inactive

Worked cases, answers included:
compound	label.class
CC(C)NCC(O)c1ccc(NS(C)(=O)=O)cc1 (centres undefined)	active
O=C(NCCO)c1cccc(-c2cc(Nc3ccc(OC(F)(F)F)cc3)ncn2)c1	active
O=c1c(O)c(-c2ccc(O)c(O)c2)oc2cc(O)cc(O)c12	inactive
N[C@@H](Cc1cc(CP(=O)(O)O)cc(-c2ccccc2Cl)c1)C(=O)O	inactive
CC(=O)/C(C)=N/O	inactive
CC[C@H]1OC(=O)[C@H](C)C(=O)[C@H](C)[C@@H](O[C@@H]2O[C@H](C)C[C@H](N(C)C)[C@H]2O)[C@](C)(OC)C[C@@H](C)C(=O)[C@H](C)[C@H]2N(CCCCn3cnc(-c4cccnc4)c3)C(=O)O[C@]12C	active
CC(N=C(NC#N)Nc1ccncc1)C(C)(C)C (centres undefined)	inactive
Nc1c(C(=O)Nc2c(F)cc(F)cc2Br)sc2nc3c(cc12)CCC3	inactive
Cc1cc(N)c2ccccc2[n+]1CCCCCCCCCC[n+]1c(C)cc(N)c2ccccc21	active
COC(=O)C1=C(C)NC(C)=C(C(=O)OCCN(C)Cc2ccccc2)C1c1cccc([N+](=O)[O-])c1 (centres undefined)	inactive

Input: Call for entry "O=C(CCCN1CCC(O)(c2ccc(Cl)cc2)CC1)c1ccc(F)cc1" :
Output: inactive

Input: Follow-up item: "N#CC(=C(/N)Sc1ccccc1N)/C(C#N)=C(\N)Sc1ccccc1N"
Output: active

Input: Now consider "CC(=O)O[C@H]1C[C@@H]2CC[C@@H]3[C@H](CC[C@@]4(C)[C@H]3C[C@H]([N+]3(C)CCCCC3)[C@@H]4OC(C)=O)[C@@]2(C)C[C@@H]1[N+]1(C)CCCCC1" .
Output: inactive

Input: Record: "CN1CC[C@]2(CCN3CCc4c(oc5ccccc45)[C@@H]3C2)N(C)C1=O"
Output: inactive

Input: What do you have for "NCCCCC(=O)O" ?
Output: inactive

Input: Param item: "CO[C@H]1O[C@@H]2O[C@@]3(C)CC[C@H]4[C@H](C)CC[C@@H]([C@H]1C)[C@@]24OO3"
Output: inactive

* * *

test: compounds altering in vitro BBB leakiness – cell-based, FITC-avidin fluorescence, HTS, primary screen (AID 1963498); conditions: brain endothelial barrier, actives lie on both sides; further: test concentration not given here
Activity calls are given as the source filed them. Rule as the data show it: active = fold change permeability below about 0.7 or above about 1.3; inactive = in between.
Select the matching outcome among active, inactive

>>> print(df.to_string())
                                   molecule  label_class
0                  Cc1cccc(/C=C/c2ccccc2)n1     inactive
1  COC(=O)C1=C(C)NC(C)=C(C(=O)OC(C)(C)CN(C)CCC(c2ccccc2)c2ccccc2)C1c1cccc([N+](=O)[O-])c1 (stereo unspecified)     inactive
2      O=C(NCc1cccnc1)c1ccc([N+](=O)[O-])o1     inactive
3  CC(C)(Oc1ccc(CCNC(=O)c2ccc(Cl)cc2)cc1)C(=O)O     inactive
4       O=C(O)c1cc(=O)c2c(Cl)cc(Cl)cc2[nH]1     inactive
5  O=c1[nH]c2cc(Cl)ccc2c(O)c1-c1cccc(Oc2ccccc2)c1       active
6  CNC1(C)C2CCC(C2)C1(C)C (stereo unspecified)     inactive
7    CN1CCN(CCCN2c3ccccc3Sc3ccc(Cl)cc32)CC1     inactive
8       COc1cccc(NC(=O)/C=C/c2ccc(Cl)cc2)c1     inactive
9  COc1cc(/C=C(\C#N)C(=O)Nc2nnc(C(F)(F)F)s2)ccc1OCc1ccc(C(F)(F)F)cc1C(F)(F)F       active

Input: Could you please tell me the result logged for CC(C)(C)c1ccc(CN2CCN(C(c3ccccc3)c3ccc(Cl)cc3)CC2)cc1 (stereo unspecified) in this assay?
Output: active

Input: Same read-out for "CC1(C)OC(=O)C(c2cccc(F)c2)=C1c1ccc(S(C)(=O)=O)cc1" ?
Output: inactive
